tested on: Fibroblast; assay: Multiplex assay against human fibroblast; format: toxicity, cell-based; conditions: 48 h, 1 µM, compound concentration 1 uM, replicate 2

COMPOUND: CCOc1c2c(c(OCC)c3ncccc13)CN(c1ccc(CS(=O)(=O)NC(=O)Cc3ccccc3OC)cc1C)C2=O
EXPERIMENTAL SYSTEM: Fibroblast
VALUE UNITS: %
Population Apoptotic (%): 66

COMPOUND: CCCN1CCC[C@@H]2Cc3n[nH]cc3C[C@H]21.Cl [QUINPIROLE HYDROCHLORIDE]
EXPERIMENTAL SYSTEM: Fibroblast
VALUE UNITS: %
Population Apoptotic (%): 38

COMPOUND: Cl.Clc1ccc2nsnc2c1NC1=NCCN1 [TIZANIDINE HYDROCHLORIDE]
EXPERIMENTAL SYSTEM: Fibroblast
VALUE UNITS: %
Population Apoptotic (%): 55

COMPOUND: O=S(=O)(c1ccccc1)c1cnc2c(N3CCNCC3)cccc2c1 [INTEPIRDINE]
EXPERIMENTAL SYSTEM: Fibroblast
VALUE UNITS: %
Population Apoptotic (%): 52

COMPOUND: O=C(O)Cc1ccccc1Nc1c(Cl)cccc1Cl
EXPERIMENTAL SYSTEM: Fibroblast
VALUE UNITS: %
Population Apoptotic (%): 57

COMPOUND: Cc1nc2ccc(Oc3ccc(F)cc3)cc2c(=O)n1C[C@H]1CCCN(C(C)C)C1.Cl
EXPERIMENTAL SYSTEM: Fibroblast
VALUE UNITS: %
Population Apoptotic (%): 42

COMPOUND: C[C@@H]1C[C@H]2[C@@H]3CCC4=CC(=O)C=C[C@]4(C)[C@@]3(F)[C@@H](O)C[C@]2(C)[C@@]1(O)C(=O)CO
EXPERIMENTAL SYSTEM: Fibroblast
VALUE UNITS: %
Population Apoptotic (%): 37

* * *

# Population Fragmented Nuclei (%) per record follows
system: HEK-293T; experiment: Multiplex assay against HEK293T; assay type: toxicity, cell-based; details: human, 48 h, 10 µM, compound concentration 10 uM, replicate 1

MOLECULE: Cc1ccccc1C(=O)Nc1ccc(C(=O)N2CCCC(N(C)C)c3ccccc32)cc1.Cl (stereo unspecified)
EXPERIMENTAL SYSTEM: HEK-293T
Population Fragmented Nuclei (%): 10

MOLECULE: CCCN1CCC[C@@H]2Cc3n[nH]cc3C[C@H]21.Cl [QUINPIROLE HYDROCHLORIDE]
EXPERIMENTAL SYSTEM: HEK-293T
Population Fragmented Nuclei (%): 15

MOLECULE: N[C@@]1(C(=O)O)CO[C@H]2[C@H](C(=O)O)[C@H]21
EXPERIMENTAL SYSTEM: HEK-293T
Population Fragmented Nuclei (%): 16

MOLECULE: Cc1ccc(C(C)(O)c2nc3ccccc3s2)c(C)c1 (stereo unspecified)
EXPERIMENTAL SYSTEM: HEK-293T
Population Fragmented Nuclei (%): 14

MOLECULE: O=C(NCC(=O)N1CC[C@H](N[C@H]2CC[C@@](O)(c3ccc(-c4ncccn4)cn3)CC2)C1)c1cccc(C(F)(F)F)c1
EXPERIMENTAL SYSTEM: HEK-293T
Population Fragmented Nuclei (%): 13

MOLECULE: C[C@H]1[C@H]2CC[C@H]3[C@@H]4CC=C5C[C@@H](N(C)C)CC[C@]5(C)[C@H]4CC[C@]23CN1C
EXPERIMENTAL SYSTEM: HEK-293T
Population Fragmented Nuclei (%): 14

MOLECULE: O=C(NCCO)c1cccc(-c2cc(Nc3ccc(OC(F)(F)F)cc3)ncn2)c1
EXPERIMENTAL SYSTEM: HEK-293T
Population Fragmented Nuclei (%): 10

MOLECULE: CCNC1(C(N)=O)CCN(c2ncnc3c2nc(-c2ccccc2Cl)n3-c2ccc(Cl)cc2)CC1
EXPERIMENTAL SYSTEM: HEK-293T
Population Fragmented Nuclei (%): 13

MOLECULE: c1cc(OCCCN2CCCCC2)ccc1CN1CCCCC1
EXPERIMENTAL SYSTEM: HEK-293T
Population Fragmented Nuclei (%): 13

MOLECULE: CNC[C@H](O)c1ccc(O)c(O)c1 [EPINEPHRINE]
EXPERIMENTAL SYSTEM: HEK-293T
Population Fragmented Nuclei (%): 21

MOLECULE: Cc1nc2ccc(Oc3ccc(F)cc3)cc2c(=O)n1C[C@H]1CCCN(C(C)C)C1.Cl
EXPERIMENTAL SYSTEM: HEK-293T
Population Fragmented Nuclei (%): 15

MOLECULE: CN1CCN2c3ncccc3Cc3ccccc3C2C1 (stereo unspecified)
EXPERIMENTAL SYSTEM: HEK-293T
Population Fragmented Nuclei (%): 14

MOLECULE: CC(=O)NCCc1c(Cc2ccccc2)[nH]c2ccccc12
EXPERIMENTAL SYSTEM: HEK-293T
Population Fragmented Nuclei (%): 13

MOLECULE: Cl.Clc1ccc2nsnc2c1NC1=NCCN1 [TIZANIDINE HYDROCHLORIDE]
EXPERIMENTAL SYSTEM: HEK-293T
Population Fragmented Nuclei (%): 19

MOLECULE: CCOc1c2c(c(OCC)c3ncccc13)CN(c1ccc(CS(=O)(=O)NC(=O)Cc3ccccc3OC)cc1C)C2=O
EXPERIMENTAL SYSTEM: HEK-293T
Population Fragmented Nuclei (%): 13

MOLECULE: Oc1c(CN2CCN(c3ccccn3)CC2)cc(Cl)c2cccnc12
EXPERIMENTAL SYSTEM: HEK-293T
Population Fragmented Nuclei (%): 23

MOLECULE: CC1(COc2ccc3c(c2)ncn3-c2ccc3cccc(N4CCC(N)CC4)c3n2)COC1
EXPERIMENTAL SYSTEM: HEK-293T
Population Fragmented Nuclei (%): 51

MOLECULE: CC[C@H]1OC(=O)[C@H](C)[C@@H](O[C@H]2C[C@@](C)(OC)[C@@H](O)[C@H](C)O2)[C@H](C)[C@@H](O[C@@H]2O[C@H](C)C[C@H](N(C)C)[C@H]2O)[C@@]2(C)CC(C)=C(O2)[C@H](C)[C@@H](O)[C@]1(C)O
EXPERIMENTAL SYSTEM: HEK-293T
Population Fragmented Nuclei (%): 12

MOLECULE: O=S(=O)(c1ccccc1)c1cnc2c(N3CCNCC3)cccc2c1 [INTEPIRDINE]
EXPERIMENTAL SYSTEM: HEK-293T
Population Fragmented Nuclei (%): 14

MOLECULE: CN1CCN(c2nc3cc(C(F)(F)F)ccc3n3cccc23)CC1.O=C(O)/C=C\C(=O)O.O=C(O)/C=C\C(=O)O
EXPERIMENTAL SYSTEM: HEK-293T
Population Fragmented Nuclei (%): 15

MOLECULE: CC(C)(C)c1ccc(S(=O)(=O)Nc2ccc(Cl)cc2C(=O)c2cc[n+]([O-])cc2)cc1
EXPERIMENTAL SYSTEM: HEK-293T
Population Fragmented Nuclei (%): 13

* * *

tested on: Fibroblast; assay: Multiplex assay against human fibroblast; format: toxicity, cell-based; conditions: 12 h, 1 µM, compound concentration 1 uM, replicate 1

MOLECULE: N#Cc1c(N)nc(SCc2csc(-c3ccc(Cl)cc3)n2)c(C#N)c1-c1ccc(OCCO)cc1
Population Pyknosed Nuclei (%): 11
//
MOLECULE: Oc1c(CN2CCN(c3ccccn3)CC2)cc(Cl)c2cccnc12
Population Pyknosed Nuclei (%): 14
//
MOLECULE: O=C1COc2nccc(-c3ccccc3F)c2CN1Cc1cc(C(F)(F)F)cc(C(F)(F)F)c1
Population Pyknosed Nuclei (%): 13
//
MOLECULE: CC1(COc2ccc3c(c2)ncn3-c2ccc3cccc(N4CCC(N)CC4)c3n2)COC1
Population Pyknosed Nuclei (%): 12
//
MOLECULE: C[C@H]1[C@H]2CC[C@H]3[C@@H]4CC=C5C[C@@H](N(C)C)CC[C@]5(C)[C@H]4CC[C@]23CN1C
Population Pyknosed Nuclei (%): 11
//
MOLECULE: CC(=O)NCCc1c(Cc2ccccc2)[nH]c2ccccc12
Population Pyknosed Nuclei (%): 18
//
MOLECULE: Cc1ccc(/C(=C\CN2CCCC2)c2ccccn2)cc1
Population Pyknosed Nuclei (%): 18
//
MOLECULE: Cl.Clc1ccc2nsnc2c1NC1=NCCN1 [TIZANIDINE HYDROCHLORIDE]
Population Pyknosed Nuclei (%): 17
//
MOLECULE: c1cc(OCCCN2CCCCC2)ccc1CN1CCCCC1
Population Pyknosed Nuclei (%): 20
